- Tested on: KM12 colon
- protocol.notes: NCI-60 one-dose screen, 48 h (100 = growth as untreated, 0 = no growth, -100 = all killed)
- setup.conditions: 10 µM unless noted
- Description: Growth inhibition of the KM12 human tumor cell line is measured as a screen for anti-cancer activity. Cells are grown in 96 well plates and exposed to the test compound for 48 hours. Compounds are tested at a single concentration, which is 10^-5 M for most compounds. The reported endpoint is percent growth (GI% or GIPRCNT), where numbers from 0 - 100% represent growth inhibition, and numbers from -100% - 0 represent cell death. For example, a value of 40 represents 60% growth inhibition. […]
The panel holds about 83,000 compounds, 20% with a hit somewhere; the sample as a whole holds those more often.
Examples of compounds with documented growth follow.

compound: CCC(C)C1NC(=O)C(CCCCN)NC(=O)C(CCCCN)NC(=O)C(CC(C)C)NC(=O)C(CCCCN)NC(=O)C(C(C)CC)NC(=O)C(C(C)C)NC(=O)C(C(C)CC)NC(=O)C(CCCCN)NC(=O)C(CCCCN)NC(=O)C(C)NC(=O)C(CCCCN)NC(=O)C(CC(C)C)NC1=O (stereo not drawn)
growth, %: 6.18
--
compound: CC(C)(C)c1ccc([I+]c2ccc(C(C)(C)C)cc2)cc1
growth, %: -30.6
--
compound: O=C1c2ccccc2CCc2ccccc21
growth, %: 102
--
compound: COc1ccc(C2=NN(C(=O)c3cc(-c4ccc(C)cc4)nc4ccccc34)C(c3cc(-c4ccccc4)nn3-c3ccccc3)C2)cc1 (stereo not drawn)
growth, %: 90.8
--
compound: COc1ccc(CNCCCN2C(=O)c3ccc4c5c(ccc(c35)C2=O)C(=O)N(CCCNCc2ccc(OC)c(OC)c2OC)C4=O)c(OC)c1OC
growth, %: -89.9
--
compound: CC(=O)CC(=O)OC/C=C(/C)CCC=C(C)C
growth, %: 105
--
compound: CC(=O)OC1/C=C\CC/C=C\C1 (stereo not drawn)
growth, %: 103
--
compound: CC(=O)/C(=C\c1c(-c2ccccc2)[nH]c2ccccc12)S(=O)(=O)c1ccccc1
growth, %: -10.1

---

// reported growth for each item listed
- System: TK-10 renal
- protocol.notes: NCI-60 one-dose screen, 48 h (100 = growth as untreated, 0 = no growth, -100 = all killed)
- setup.conditions: 10 µM unless noted
This is part of a sample that, as a whole, favours compounds with a hit. Of some 83,000 tested, about 20% had one in any assay. The source made the active and inactive calls. How the source made its calls: active means growth percent below 10; inactive means the rest.
observed.property: growth

compound.structure.string: O=C1NCCN1/N=C/c1c(Cl)nc2n1CCS2
tested.system: TK-10 renal
recorded.value: 116% (inactive)

compound.structure.string: NC(=O)c1c(Nc2ccccc2)nn2cc(-c3nc4ccccc4s3)c(N)nc12
tested.system: TK-10 renal
recorded.value: 124% (inactive)

compound.structure.string: CC1(C)N=C(N)N=C(N)N1c1cccc(CCCCOc2ccccc2)c1
tested.system: TK-10 renal
recorded.value: 24% (inactive)

compound.structure.string: CCOC(=O)NC1=NCC(C)(C)S1
tested.system: TK-10 renal
recorded.value: 98.4% (inactive)

compound.structure.string: Nc1ccc(S(=O)(=O)Nc2cc(F)cc(F)c2)cc1
tested.system: TK-10 renal
recorded.value: 112% (inactive)

compound.structure.string: CC(=O)O.[In]
tested.system: TK-10 renal
recorded.value: 100% (inactive)

compound.structure.string: O=C(/C=C/c1ccc(Br)cc1)c1ccccc1
tested.system: TK-10 renal
recorded.value: 64% (inactive)

compound.structure.string: [2H]c1nc(=Nc2cc(NC(=O)C=C)c(N(C)CCN(C)C)cc2OC)[nH]c(-c2cn(C([2H])([2H])[2H])c3ccccc23)c1[2H]
tested.system: TK-10 renal
recorded.value: 26.8% (inactive)

compound.structure.string: O=C(Cc1ccccc1[N+](=O)[O-])c1ccc2c(c1)OCO2
tested.system: TK-10 renal
recorded.value: 91.6% (inactive)

compound.structure.string: CCCCN(CCC)CCCCCCCCCCN1CCCc2ccccc21
tested.system: TK-10 renal
recorded.value: 82.7% (inactive)

compound.structure.string: N#CCc1ncc(-c2ccc(C(F)(F)F)cc2)c(NC2CCCCCC2)n1
tested.system: TK-10 renal
recorded.value: 61.2% [100 µM] (inactive)
